biological target: tau (Homo sapiens, UniProt P10636); test: MCE Phenols Library screening, tau biosensor cell seeding assay (AvZ); format: cell-based; details: puncta, replicate 1
Sequence (P10636 623-695 limits assumed): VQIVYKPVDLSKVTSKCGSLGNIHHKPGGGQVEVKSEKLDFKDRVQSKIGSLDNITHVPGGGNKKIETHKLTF
experimentalReadout: raw data 1

>  <compound>
O=C1c2c(O)cc(O)cc2O[C@H](c2cc(O)c(O)c(O)c2)[C@H]1O [Dihydromyricetin]

>  <raw data 1>
10190.2

$$$$
>  <compound>
COc1ccc(C(C)=O)c(O)c1

>  <raw data 1>
27565

$$$$
>  <compound>
CC(C)=CCc1c2c(c(O)c3c1O[C@]14C(=C[C@@H]5C[C@H]1C(C)(C)O[C@@]4(C/C=C(/C)C(=O)O)C5=O)C3=O)C=CC(C)(C)O2

>  <raw data 1>
18474.5

$$$$

Please examine the following record next.
Record request: raw data 1 value, item CC(C)=CCc1c(O)c(CC=C(C)C)c2oc3c(O)cccc3c(=O)c2c1O
16933.5

Hey, just so you know, these numbers are from paper PMC11784839.
